Target: R575
Test: Inhibition RIA of [3H]CsA binding to rabbit anti-cyclosporine antibodies R575
Conditions: read-out: IC50 = Concentration for 50% inhibition; inhibition of [3H] dihydro CsA binding to rabbit antibody R575
Each record here notes measured log10 IC50.
Form field - Quantity: IC50; Unit: nM; Scale: log10

Give the reported log10 IC50 for this compound. C/C=C/C[C@@H](C)[C@@H](O)[C@H]1C(=O)N[C@@H]([C@@H](C)OC(C)=O)C(=O)N(C)CC(=O)N(C)[C@@H](CC(C)C)C(=O)N[C@@H](C(C)C)C(=O)N(C)[C@@H](CC(C)C)C(=O)N[C@@H](C)C(=O)N[C@H](C)C(=O)N(C)[C@@H](CC(C)C)C(=O)N(C)[C@@H](CC(C)C)C(=O)N(C)[C@@H](C(C)C)C(=O)N1C
0.68

Give the reported log10 IC50 for this compound. C/C=C/C[C@@H](C)[C@@H](OC(C)=O)[C@H]1C(=O)N[C@@H](CC)C(=O)N(C)CC(=O)N(C)[C@@H](CC(C)C)C(=O)N[C@@H](C(C)C)C(=O)N(C)[C@@H](CC(C)C)C(=O)N[C@@H](C)C(=O)N[C@H](C)C(=O)N(C)[C@@H](CC(C)C)C(=O)N(C)[C@@H](CC(C)C)C(=O)N(C)[C@@H](C(C)C)C(=O)N1C
0.78

Give the reported log10 IC50 for this compound. C/C=C/C[C@@H](C)[C@@H](O)[C@H]1C(=O)N[C@@H](C(C)C)C(=O)N(C)CC(=O)N(C)[C@@H](CC(C)C)C(=O)N[C@@H](C(C)C)C(=O)N(C)[C@@H](CC(C)C)C(=O)N[C@@H](C)C(=O)N[C@H](C)C(=O)N(C)[C@@H](CC(C)C)C(=O)N(C)[C@@H](CC(C)C)C(=O)N(C)[C@@H](C(C)C)C(=O)N1C
0.63

Give the reported log10 IC50 for this compound. C/C=C/C[C@@H](C)[C@@H](O)[C@H]1C(=O)N[C@@H](CC)C(=O)N(C)CC(=O)N(C)[C@@H](CC(C)C)C(=O)N[C@@H](C(C)C)C(=O)N(C)[C@@H](CC(C)C)C(=O)N[C@@H](C)C(=O)N[C@H](COC(C)(C)C)C(=O)N(C)[C@@H](CC(C)C)C(=O)N(C)[C@@H](CC(C)C)C(=O)N(C)[C@@H](C(C)C)C(=O)N1C
3.43

Give the reported log10 IC50 for this compound. C/C=C/C[C@@H](C)[C@@H](O)[C@H]1C(=O)N[C@@H]([C@@H](C)O)C(=O)N(C)CC(=O)N(C)[C@@H](CC(C)C)C(=O)N[C@@H](C(C)C)C(=O)N(C)[C@@H](CC(C)C)C(=O)N[C@@H](C)C(=O)N[C@H](C)C(=O)N(C)[C@@H](CC(C)C)C(=O)N(C)[C@@H](CC(C)C)C(=O)N(C)[C@@H](C(C)C)C(=O)N1C
1.06

Give the reported log10 IC50 for this compound. C/C=C/C[C@@H](C)[C@@H](O)[C@H]1C(=O)N[C@@H](CC)C(=O)N(C)CC(=O)N(C)[C@@H](CC(C)C)C(=O)N[C@@H](C(C)C)C(=O)N(C)[C@@H](CC(C)C)C(=O)N[C@@H](C)C(=O)N[C@H](C)C(=O)N(C)[C@@H](CC(C)C)C(=O)N(C)[C@@H](CC(C)C)C(=O)N(C)[C@@H]([C@@H](C)CC)C(=O)N1C
0.85

Give the reported log10 IC50 for this compound. C/C=C/C[C@@H](C)[C@@H](O)[C@H]1C(=O)N[C@@H](CC)C(=O)N(C)CC(=O)N(C)[C@@H](CC(C)C)C(=O)N[C@@H](C(C)C)C(=O)N(C)[C@H](C)C(=O)N[C@@H](C)C(=O)N[C@H](C)C(=O)N(C)[C@@H](CC(C)C)C(=O)N(C)[C@@H](CC(C)C)C(=O)N(C)[C@@H](C(C)C)C(=O)N1C
1.26

Give the reported log10 IC50 for this compound. C/C=C/C[C@@H](C)[C@@H](O)[C@H]1C(=O)N[C@@H](CC)C(=O)N2CCC[C@H]2C(=O)N(C)[C@@H](CC(C)C)C(=O)N[C@@H](C(C)C)C(=O)N(C)[C@@H](CC(C)C)C(=O)N[C@@H](C)C(=O)N[C@H](C)C(=O)N(C)[C@@H](CC(C)C)C(=O)N(C)[C@@H](CC(C)C)C(=O)N(C)[C@@H](C(C)C)C(=O)N1C
1.08
